Molecular target: Peroxisome proliferator-activated receptor gamma (Homo sapiens, UniProt P37231)
Sequence (P37231 whole entry): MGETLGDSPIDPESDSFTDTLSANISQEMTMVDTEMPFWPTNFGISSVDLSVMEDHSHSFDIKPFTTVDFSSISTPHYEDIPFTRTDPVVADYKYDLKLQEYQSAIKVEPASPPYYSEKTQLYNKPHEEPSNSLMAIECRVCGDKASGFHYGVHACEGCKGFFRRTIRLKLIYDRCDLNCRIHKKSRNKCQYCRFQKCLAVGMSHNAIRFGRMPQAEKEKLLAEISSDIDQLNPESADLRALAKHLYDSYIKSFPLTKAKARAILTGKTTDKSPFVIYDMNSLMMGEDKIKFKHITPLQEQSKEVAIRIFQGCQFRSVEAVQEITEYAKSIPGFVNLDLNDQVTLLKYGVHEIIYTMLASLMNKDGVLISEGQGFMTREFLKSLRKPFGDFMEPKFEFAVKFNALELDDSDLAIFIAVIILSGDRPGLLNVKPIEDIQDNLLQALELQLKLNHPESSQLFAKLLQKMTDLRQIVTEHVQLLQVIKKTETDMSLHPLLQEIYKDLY
Experiment: Effective concentration against human PPAR-gamma in Gal4 transactivation assay; 2% response at 3 uM
Type: functional
pEC50: −log10 of the molar value.

# compound, pEC50
records = [
    ("O=C(O)C1(C(F)(F)F)Cc2cc(OCCCOc3ccc(CC(F)(F)F)cc3Cl)ccc2O1 (racemic)", "< 5.52"),
]

----------
Overview of recorded IC50 for various compounds
target: Peroxisome proliferator-activated receptor gamma (Homo sapiens); assay: In vitro binding affinity for PPAR-gamma
measurement type: IC50

# compound, readout value
rows = [
    ("CCCc1cc(SC(F)(F)F)ccc1OCCCOc1ccc2c(c1)CC(CC)(C(=O)O)O2 (racemic)", "3.11 µM"),
    ("CC(C)(C)C1(C(=O)O)Cc2cc(OCCCOc3ccc(CC(F)(F)F)cc3Cl)ccc2O1 (racemic)", "> 15 µM"),
    ("CCC1(C(=O)O)Cc2cc(OCCCOc3ccc(SC(F)(F)F)cc3Cl)ccc2O1 (racemic)", "6.77 µM"),
    ("CCC1(C(=O)O)Cc2cc(OCCCOc3ccc(OCC(F)(F)F)cc3Cl)ccc2O1 (racemic)", "> 15 µM"),
]

----------
target: Peroxisome proliferator-activated receptor gamma (Homo sapiens, UniProt P37231); assay: Effective concentration against human PPAR-gamma in Gal4 transactivation assay; 56% response at 3 uM; format: functional

# molecule, study target, EC50
measured = [
    ("CCC1(C(=O)O)Cc2cc(OCCCOc3ccc(C(C)(C)C)cc3Cl)ccc2O1 (racemic)", "Peroxisome proliferator-activated receptor gamma (Homo sapiens, UniProt P37231)", "> 3 µM"),
]

----------
Biological target: Peroxisome proliferator-activated receptor gamma (Homo sapiens)
Sequence (P37231 whole entry): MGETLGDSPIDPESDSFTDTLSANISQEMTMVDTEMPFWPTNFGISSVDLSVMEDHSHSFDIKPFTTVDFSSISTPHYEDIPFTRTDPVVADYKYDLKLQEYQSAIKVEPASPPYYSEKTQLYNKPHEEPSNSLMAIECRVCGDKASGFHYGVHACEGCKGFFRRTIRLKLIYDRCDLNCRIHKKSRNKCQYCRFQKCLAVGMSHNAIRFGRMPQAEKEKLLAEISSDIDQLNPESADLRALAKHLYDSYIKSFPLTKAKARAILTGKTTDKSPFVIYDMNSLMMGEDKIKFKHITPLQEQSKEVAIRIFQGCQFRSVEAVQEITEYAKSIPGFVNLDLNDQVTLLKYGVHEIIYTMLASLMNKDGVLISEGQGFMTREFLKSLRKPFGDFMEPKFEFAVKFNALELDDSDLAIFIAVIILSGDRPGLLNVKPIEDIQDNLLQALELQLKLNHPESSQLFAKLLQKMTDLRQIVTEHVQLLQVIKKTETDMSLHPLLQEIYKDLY
Assay: Effective concentration against human PPAR-gamma in Gal4 transactivation assay; 4% response at 3 uM
Format: functional
pEC50: −log10 of the molar value.
measurement type: pEC50

# chemical string, measurement type, readout value
data = [
    ("CC(C)[C@@]1(C(=O)O)Cc2cc(OCCOc3ccc(OC(F)(F)F)cc3Cl)ccc2O1", "pEC50", "< 5.52"),
]
